Tested on: HCC-2998 colon
Assay: NCI tumour cell line growth inhibition, 48 h
Cut-off 30 µM on TGI, inclusive. At or above means t; below means f.

Ask: Does Cn1ccnc1C(=O)/C=C/c1ccc(CC(=O)Nc2ccc(C(F)(F)F)cc2)cc1 have a reported TGI of at least 30 µM?
Reply: f

Ask: Textbook exercise: given the entry CC1=N[C@](C)(C2CC3C=CC2C3=O)COC1=O (stereo partly specified) , state whether its TGI is greater than or equal to 30 µM.
Reply: t

Ask: In plain terms: is recorded TGI at least 30 µM for Cn1cnc(N2CCCC2)c(C#N)c1=O ?
Reply: t

Ask: Kindly determine if TGI recorded for COC(=O)CC(=O)Nc1sccc1S(=O)(=O)c1ccccc1 is above or exactly 30 µM.
Reply: t

Ask: Determine whether this compound has TGI no lower than 30 µM: O=C(CN1CCN(c2ccccc2)CC1)N1CCN(c2nnc(-c3ccc(Cl)cc3)c(-c3ccc(Cl)cc3)n2)CC1
Reply: t

Ask: Record CC(C)/C(Cl)=N\OC(=O)Nc1ccc(F)cc1F ; criterion: TGI no lower than 30 µM. Met?
Reply: t

Ask: Is it the case that CCCOC(=O)CCn1c(SC)nc2[nH]cc(-c3ccccc3)c2c1=O has TGI reaching or exceeding 30 µM?
Reply: t

Ask: Is TGI for Cc1ccc(S(=O)(=O)n2c3c(c4ccccc42)CCN2CCC(Br)C[C@@H]32)cc1 (stereo partly specified) at or above 30 µM?
Reply: f

Ask: Does the compound CCCOc1nc(SCCC)nc2c1cnn2-c1ccccc1 have recorded TGI that is 30 µM or more?
Reply: t

* * *

Tested on: MCF7 breast
Assay: NCI tumour cell line growth inhibition, 48 h
Would you kindly list TGI for each of these compounds?

Ask: Sample NC(CCCCNC(=O)CNC(=O)OCc1ccccc1)C(=O)NC(CCCCNC(=O)CNC(=O)OCc1ccccc1)C(=O)NC(CCCCNC(=O)CNC(=O)OCc1ccccc1)C(=O)NC(CCCCNC(=O)CNC(=O)OCc1ccccc1)C(=O)NC(CCCCNC(=O)CNC(=O)OCc1ccccc1)C(=O)NC(CCCCNC(=O)CNC(=O)OCc1ccccc1)C(=O)O (stereo not given) — what was its TGI?
Reply: > 75 µM

Ask: For COc1cc(Oc2nc3c(N)cc(C(F)(F)F)cc3nc2-c2ccccc2)cc(OC)c1OC , what is its reported TGI?
Reply: > 50.5 µM

Ask: // query TGI value for entry CC(C)(C)OC(=O)N(CCNS(=O)(=O)c1cccc2cnccc12)CCC(=O)ON1C(=O)CCC1=O
Reply: > 100 µM

Ask: Recorded TGI of CC(C)C/C=C/C1=NN(c2cccc(S(=O)(=O)O)c2)C2(C1)SCC(=O)N2c1nc2ccccc2s1 (stereo not given) , please.
Reply: > 100 µM

Ask: TGI lookup needed for CCOc1ncn(-c2ccc(NC(=S)NC34CC5CC(CC(C5)C3)C4)cc2)n1 , thanks.
Reply: > 100 µM

Ask: I would be grateful if you could share the reported TGI for CC(=O)O[C@H]1CCn2c3c(c(C)c21)C(=O)C(N1CC1)=C(C)C3=O .
Reply: > 10 µM

Ask: I have this compound here, CCOP(=O)(CN=C(c1ccccc1)c1ccccc1)OCC , and I need its recorded TGI.
Reply: > 100 µM

Ask: May I ask what TGI has been recorded for C/C=C/[C@@H]1OC(=O)C2=C[C@@H](O)[C@@H](/C=C/C)O[C@H]21 ?
Reply: > 100 µM

Ask: Looking for the measured TGI of O=C(Cc1ccccc1)NCCCN(CCCCN(CCCNC(=O)Cc1ccccc1)C(=O)OCc1ccccc1)C(=O)OCc1ccccc1 , can you help?
Reply: > 100 µM

Ask: Please look up its TGI: CCOc1cc2c(cc1OC(C)=O)C(=O)CC[C@H]1C3CC[C@H](OC(C)=O)[C@@]3(C)CC[C@H]21 (stereo not given in full)
Reply: > 100 µM
